Target: Pax6 DNA-binding domain (BD-Pax6) (Mus musculus (B6), UniProt P63015 190-289)
Sequence (P63015 190-289): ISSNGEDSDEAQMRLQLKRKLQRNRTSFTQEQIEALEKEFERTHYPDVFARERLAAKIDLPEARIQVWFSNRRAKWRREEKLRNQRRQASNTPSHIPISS
Assay: EMSA; 10% glycerol, 20 mM HEPES pH 7.8, 45 mM KCl, 10 mM NaCl, 1 mM EDTA, 1 mM DTT, 0.2 ug/uL BSA, 0.1% NP-40, 50 ng poly-dIdC; 20 ng each GST protein; room temperature 30 min (heterodimers 4 C); 6% PAGE 0.25x TBE
Conditions: protein: recombinant; tags: GST (N-terminal, pGEX-6P-1); label: 32P-dCTP fill-in of the 5' (dG)5 overhangs of both strands (Methods; control probes are given with GGG)

{"binder": "106 (dsDNA) DNA 1: GGGGGGCTTCCCTAGAATTGGAGATACAAAGGGCTCTGCCCCC DNA 2: GGGGGCAGAGCCCTTTGTATCTCCAATTCTAGGGAAGCCCCCC", "binding result": "no binding"}
{"binder": "55 (dsDNA) DNA 1: GGGGGGTAGATTATTTGTCCACCATTCACAAGCACTGAGTTCAATAACCCCCC DNA 2: GGGGGGTTATTGAACTCAGTGCTTGTGAATGGTGGACAAATAATCTACCCCCC", "binding result": "no binding"}
{"binder": "4b (dsDNA) DNA 1: GGGGGAGTCTCTGTAAAATTAACAAACAAGTTACCCCCC DNA 2: GGGGGGTAACTTGTTTGTTAATTTTACAGAGACTCCCCC", "binding result": "no binding"}
